- target-or-system: NS3-NS4 (Hepatitis C virus genotype 1a)
- Sequence (P27958 1027-1657): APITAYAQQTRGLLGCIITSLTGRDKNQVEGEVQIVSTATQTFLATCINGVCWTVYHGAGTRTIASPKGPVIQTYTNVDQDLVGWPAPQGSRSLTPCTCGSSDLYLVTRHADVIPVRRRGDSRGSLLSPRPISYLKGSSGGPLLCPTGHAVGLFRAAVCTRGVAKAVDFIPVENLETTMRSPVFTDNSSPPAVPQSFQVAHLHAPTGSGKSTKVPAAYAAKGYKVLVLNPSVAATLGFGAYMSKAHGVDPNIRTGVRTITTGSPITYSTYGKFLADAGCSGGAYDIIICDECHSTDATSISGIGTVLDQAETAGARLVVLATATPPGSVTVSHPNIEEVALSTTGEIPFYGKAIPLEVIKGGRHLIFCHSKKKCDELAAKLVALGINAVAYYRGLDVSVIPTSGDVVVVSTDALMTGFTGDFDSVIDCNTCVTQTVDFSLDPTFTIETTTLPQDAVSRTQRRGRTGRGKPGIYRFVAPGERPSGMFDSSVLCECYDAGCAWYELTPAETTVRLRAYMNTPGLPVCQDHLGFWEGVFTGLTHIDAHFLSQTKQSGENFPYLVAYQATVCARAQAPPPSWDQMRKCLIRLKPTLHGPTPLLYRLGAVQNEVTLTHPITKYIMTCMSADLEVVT
- Sequence (P27958 1658-1711): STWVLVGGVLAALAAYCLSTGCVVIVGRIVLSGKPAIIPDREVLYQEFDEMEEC
- assay-procedure: cell-based
- condition-context: EC50, NS3-NS4 activity
pEC50: −log10 of the molar value.
quantity-kind: pEC50

Problem: # input compound: O=C1N[C@]2(C(=O)NS(=O)(=O)C3CC3)C[C@H]2/C=C\CCCCC[C@H](Nc2nc(-c3ccc(F)c(F)c3)cs2)C(=O)N2C[C@H](OC(=O)N3Cc4cccc(F)c4C3)C[C@@H]12 [Compound 223] ; wanted: its pEC50
Result: > 7.00

Problem: Next entry: CC(C)(C)OC(=O)N[C@H]1CCCCCCC[C@@H]2C[C@@]2(C(=O)NS(=O)(=O)c2ccc(Cl)nc2Cl)NC(=O)[C@@H]2C[C@@H](OC(=O)N3Cc4cccc(F)c4C3)CN2C1=O [Compound 637]
Result: 6.00 to 7.00

Problem: Cc1cc(S(=O)(=O)NC(=O)[C@@]23C[C@H]2/C=C\CCCCC[C@H](NC(=O)OC(C)(C)C)C(=O)N2C[C@H](OC(=O)N4Cc5cccc(F)c5C4)C[C@H]2C(=O)N3)c(C)s1 [Compound 302] ?
Result: > 7.00

Problem: Another compound: O=C1N[C@]2(C(=O)NS(=O)(=O)C3CC3)C[C@H]2/C=C\CCCCC[C@H](NC(=O)N2Cc3ccccc3C2)C(=O)N2C[C@H](OC(=O)N3Cc4cccc(F)c4C3)C[C@@H]12 [Compound 422]
Result: 6.00 to 7.00
